Test system: LNCaP cells
METHOD NOTES: Inhibition of LNCaP cell proliferation (WST-8)
Format: cell-based
CONDITIONS: Homo sapiens, LNCaP FGC cells, 96 hours
Experimental: The inhibitory activity of compounds disclosed in the present invention on LNCaP cell proliferation The cells were cultured overnight in a 37°C, 5% CO2 cell incubator. […] The final concentration of the compound was 9 concentration points of 5-fold serial dilution starting from 10 µM. […] The cells were cultured in a cell culture incubator at 37°C and 5% CO2 for 96 hours. […] The absorbance at 450 nm was detected using a microplate reader (TECAN, F50).
MEASUREMENT NAME: IC50

1. COc1cc(O[C@H]2C(C)(C)[C@H](NC(=O)c3ccc(N4CCC(C)(CN5CCC6(CCc7cc(F)c(C(=O)N[C@H]8CCC(=O)NC8=O)cc7O6)CC5)CC4)cc3)C2(C)C)ccc1C#N [A-P-38]	1.49 µM
2. COc1cc2c(cc1C(=O)N[C@H]1CCC(=O)NC1=O)CCC1(CCN(CC3CCN(c4ccc(N5CCC6(CC5)C[C@H](C)N(c5ccc(C#N)c(Cl)c5)C6)cc4)CC3)CC1)O2 [A-P-54]	0.91 µM

response.value for N#Cc1cc2c(cc1Cl)CC1(CCN(c3ccc(C(=O)N4CCC(CN5CCC6(CCc7cc(C(=O)N[C@H]8CCC(=O)NC8=O)c(F)cc7O6)CC5)CC4)cc3)CC1)CO2 [A-P-51] (field: IC50) = 3.36 µM
